# TESTED_ON: Human Factor D (Homo sapiens, UniProt P00746)
# Construct: purified from human serum; purchased Complement Technology, Inc; host or cells: human serum (natural protein, not recombinant)
# Sequence (P00746 26-253): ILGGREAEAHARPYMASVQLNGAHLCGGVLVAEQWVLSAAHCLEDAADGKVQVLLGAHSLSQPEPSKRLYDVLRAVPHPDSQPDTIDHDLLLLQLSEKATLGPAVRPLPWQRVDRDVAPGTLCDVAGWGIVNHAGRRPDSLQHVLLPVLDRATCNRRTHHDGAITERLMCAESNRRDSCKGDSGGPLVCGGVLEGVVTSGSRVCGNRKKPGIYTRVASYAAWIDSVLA
# ASSAY_COMMENT: Human Factor D Assay
# Format: biochemical
# MEASUREMENT_PARAMETERS: Human Factor D 80 nM, substrate Z-L-Lys-SBzl; Table 2; read-out: IC50 (Stars)
MEASUREMENT_TYPE: IC50

[ask] Request the reported IC50 associated with CC(=O)c1cn(CC(=O)N2[C@H](C(=O)Nc3nc(C(F)(F)F)ccc3C)C[C@@]3(C)C[C@@H]23)c2c(C)cc(-c3cnc4cc(CO)nn4c3)cc12 [Compound 226]
[reply] < 1000 nM

[ask] Request the reported IC50 associated with CC(=O)c1nn(CC(=O)N2[C@H](C(=O)Nc3nc(C(F)(F)F)ccc3C)C[C@@]3(C)C[C@@H]23)c2c(C)cc(-c3cnc(C(=O)O)nc3)cc12 [Compound 51]
[reply] < 1000 nM

[ask] Request the reported IC50 associated with CC(=O)c1nn(CC(=O)N2[C@H]3CC[C@H](C3)[C@H]2C(=O)Nc2nc(C(F)(F)F)ccc2C)c2c(C)cc(-c3cncc(C4(C(=O)O)CC4)c3)cc12 [Compound 128]
[reply] < 1000 nM

* * *

Recorded pIC50 by entry
# TESTED_ON: Human Factor D (Homo sapiens)
# Construct: purified from human serum; purchased Complement Technology, Inc; host or cells: human serum (natural protein, not recombinant)
# ASSAY_COMMENT: Human Factor D Assay
# Format: biochemical
# MEASUREMENT_PARAMETERS: Human Factor D 80 nM, substrate Z-L-Lys-SBzl; Table 2; read-out: IC50 (Stars)
pIC50: −log10 of the molar value.

// solved cases for pIC50 follow
[ask] Request the reported pIC50 associated with Cc1ncc(-c2cc3c(C(N)=O)nn(CC(=O)N4C(C(=O)Nc5nc(Br)ccc5Cl)CC5(C)CC45)c3c(C)n2)cn1 (stereo not drawn)
[reply] > 6.00

[ask] Request the reported pIC50 associated with CC(=O)c1cn(CC(=O)N2[C@H](C(=O)Nc3nc(C(F)(F)F)ccc3C)C[C@@]3(C)C[C@@H]23)c2c(C)cc(-c3cnc(CF)nc3)cc12
[reply] > 6.00

// next entry
[ask] Request the reported pIC50 associated with CC(=O)c1nn(CC(=O)N2[C@H](C(=O)Nc3ccc(F)c(Br)n3)C[C@@]3(C)C[C@@H]23)c2c(C)cc(-c3cnc(C(C)O)nc3)cc12 (stereo partly drawn)
[reply] > 6.00

* * *

Recorded IC50 by entry
# TESTED_ON: Human Factor D (Homo sapiens, UniProt P00746)
# Construct: purified from human serum; purchased Complement Technology, Inc; host or cells: human serum (natural protein, not recombinant)
# ASSAY_COMMENT: Human Factor D Assay
# Type: biochemical
# MEASUREMENT_PARAMETERS: Human Factor D 80 nM, substrate Z-L-Lys-SBzl, assay of Example 3; read-out: IC50 (Stars)

// solved cases for IC50 follow
[ask] Request the reported IC50 associated with CC(=O)c1nn(CC(=O)N2[C@H](C(=O)NCCc3ccccc3F)C[C@@]3(C)C[C@@H]23)c2c(C)cc(-c3cnc(C)nc3)cc12 [Compound 1]
[reply] < 1000 nM

[ask] Request the reported IC50 associated with CC(=O)c1nn(CC(=O)N2C[C@H](F)C[C@H]2C(=O)Nc2cccc(Br)n2)c2ccc(-c3ccc(C)c(F)c3)cc12 [Compound 34]
[reply] < 1000 nM

[ask] Request the reported IC50 associated with CC(=O)c1nn(CC(=O)N2[C@H](C(=O)NCCc3cccnc3)C[C@@]3(C)C[C@@H]23)c2c(C)cc(-c3cnc(C)nc3)cc12 [Compound 7]
[reply] < 1000 nM

[ask] Request the reported IC50 associated with CC(=O)c1nn(CC(=O)N2[C@H](C(=O)NCCc3ccccn3)C[C@@]3(C)C[C@@H]23)c2c(C)cc(-c3cnc(C)nc3)cc12 [Compound 6]
[reply] < 1000 nM

[ask] Request the reported IC50 associated with CC[C@@H](C)NC(=O)[C@@H]1C[C@@]2(C)C[C@H]2N1C(=O)Cn1nc(C(C)=O)c2cc(-c3cnc(C)nc3)ccc21 [Compound 11]
[reply] < 1000 nM

// next entry
[ask] Request the reported IC50 associated with CC(=O)c1nn(CC(=O)N2[C@H](C(=O)Nc3nc(Br)ccc3C)C[C@@]3(C)C[C@@H]23)c2c3c(c(-c4cnc(C)nc4)cc12)CCCO3 [Compound 20]
[reply] < 1000 nM
